Sourced from ChEMBL document CHEMBL1275275

- Tested on: HepG2
- method_summary: Antitumor activity against human HepG2 cells
- Type: functional, cell-based
readout_type: IC50

Q) Consider the compound shown here: COc1cccc2c1C(=O)c1c(O)c3c(c(O)c1C2=O)C[C@@](O)(C(=O)CO)C[C@@H]3O[C@H]1C[C@H](N)[C@H](O)[C@H](C)O1 [DOXORUBICIN] What is its recorded IC50?
A) 3.73 µg/mL

Q) Consider the compound shown here: COc1c2c(c(OC)c3occc13)OC1(CCCCC1)c1[se]nnc1-2 What is its recorded IC50?
A) 9.53 µg/mL

Q) Consider the compound shown here: COc1c2c(cc3occc13)OC1(CCCCC1)c1[se]nnc1-2 What is its recorded IC50?
A) 14.6 µg/mL

Q) Consider the compound shown here: COc1c2c(cc3occc13)OC(C)(C)c1[se]nnc1-2 What is its recorded IC50?
A) 11.5 µg/mL

Q) Consider the compound shown here: COc1c2occc2c(OC)c2c(C=C(C)N3CCCC3)c(C#N)c(=N)oc12 What is its recorded IC50?
A) 10.9 µg/mL

Q) Consider the compound shown here: COc1c2c(c(OC)c3occc13)OC(C)(C)c1[se]nnc1-2 What is its recorded IC50?
A) 15.9 µg/mL

Q) Consider the compound shown here: COc1c2c(c(OC)c3occc13)OC1(CCCCC1)C/C2=N\NC(N)=O What is its recorded IC50?
A) 8.61 µg/mL

Q) Consider the compound shown here: CCC1(C)Oc2c(c(OC)c3ccoc3c2OC)-c2nn[se]c21 (centres undefined) What is its recorded IC50?
A) 9.53 µg/mL

Q) Consider the compound shown here: COc1c2occc2c(OC)c2c(C=C(C)N3CCCCC3)c(C#N)c(=N)oc12 What is its recorded IC50?
A) 8.46 µg/mL

* * *

Please provide measured IC50 for the entries that follow.
- System: HeLa
- method_summary: Antitumor activity against human HeLa cells
- Format: functional, cell-based
Response body: numeric value in µg/mL, unit text excluded.

Q) Consider the compound shown here: COc1c2c(cc3occc13)OC(C)(C)c1[se]nnc1-2 What is its recorded IC50?
A) 6.02

Q) Consider the compound shown here: COc1c2occc2c(OC)c2c(C=C(C)N3CCCC3)c(C#N)c(=N)oc12 What is its recorded IC50?
A) 5.11

Q) Consider the compound shown here: COc1c2c(c(OC)c3occc13)OC(C)(C)c1[se]nnc1-2 What is its recorded IC50?
A) 4.35

Q) Consider the compound shown here: COc1c2c(cc3occc13)OC1(CCCCC1)c1[se]nnc1-2 What is its recorded IC50?
A) 7.24

Q) Consider the compound shown here: COc1cccc2c1C(=O)c1c(O)c3c(c(O)c1C2=O)C[C@@](O)(C(=O)CO)C[C@@H]3O[C@H]1C[C@H](N)[C@H](O)[C@H](C)O1 What is its recorded IC50?
A) 4.19

Q) Consider the compound shown here: CCC1(C)Oc2c(c(OC)c3ccoc3c2OC)-c2nn[se]c21 (centres undefined) What is its recorded IC50?
A) 6.02

Q) Consider the compound shown here: COc1c2c(c(OC)c3occc13)OC1(CCCCC1)c1[se]nnc1-2 What is its recorded IC50?
A) 5.57

Q) Consider the compound shown here: COc1c2c(c(OC)c3occc13)OC1(CCCCC1)C/C2=N\NC(N)=O What is its recorded IC50?
A) 4.19

Q) Consider the compound shown here: COc1c2occc2c(OC)c2c(C=C(C)N3CCCCC3)c(C#N)c(=N)oc12 What is its recorded IC50?
A) 4.8
